Origin of the recorded values: patent US7115750B1

Can you tell me melting point for the items I'm about to list?

Reference set, count: 6
CN(C)CC1CCc2cc(NC(=O)c3ccc(-c4ccc(CO)cc4)cc3)ccc2C1 (centres unmarked) = 138 to 139 °C
CN(C)CC1CCc2cc(NC(=O)c3ccc(-c4ccccc4)cc3)ccc2C1.Cl (centres unmarked) [Reference Example 25] = > 250 °C
COc1ccc(C2CCN(C(=O)Nc3ccc4c(c3)CCC(CN3CCN(C)CC3)=C4)CC2)cc1 = 198 to 200 °C
CN(C)CC1=Cc2ccc(NC(=O)c3ccc(-c4ccc(F)cc4)cc3)cc2CC1 = 190 to 193 °C
O=C(Nc1ccc2c(c1)CCC(CN1CCCC1)=C2)c1ccc(-c2ccc(Cl)cc2)nc1 = 252 to 253 °C
Cc1ccc(C2CCN(C(=O)Nc3ccc4c(c3)CCC(CN3CCN(C)CC3)=C4)CC2)cc1 = 214 to 216 °C

Go through the items and report each one's melting point.
1. O=C(Nc1ccc2c(c1)CCC(CCN1CCCC1)=C2)c1ccc(-c2ccc(F)cc2)cc1
2. O=C(Nc1ccc2c(c1)CCC(CN1CCCC1)C2)c1ccc(-c2ccc(Cl)cc2)cc1 (centres unmarked)

A.
187 to 189 °C
206 to 209 °C
